Test Summary: Stability in human plasma assessed as parent compound remaining after 24 hrs
Format: ADME, cell-free
Details: read-out: Stability
Outcome Measure: remaining at 24 h
Please give the number followed by its unit.

Lab note: measured remaining at 24 h of CC(=O)NCSC[C@H](NC(=O)[C@H]1CCCN1C(=O)[C@H](CCCCN)NC(=O)[C@H](CO)NC(=O)[C@H](CCC(N)=O)NC(=O)[C@H](Cc1ccccc1)NC(C)=O)C(=O)N[C@H](C(=O)N[C@@H](Cc1c[nH]cn1)C(=O)N[C@H](C(=O)N[C@@H](CC(=O)O)C(=O)NCC(=O)N[C@@H](Cc1ccc(O)cc1)C(=O)N[C@@H](Cc1ccccc1)C(=O)N[C@@H](CCC(=O)O)C(=O)N[C@@H](CCCNC(=N)N)C(=O)N[C@@H](CC(C)C)C(=O)NC(C)(C)C(=O)N[C@@H](C)C(=O)N[C@@H](CCCCN)C(=O)N[C@@H](CC(C)C)C(N)=O)C(C)(C)C)C(C)C was 81.2%

---

Listing of recorded remaining at 24 h by entry.
Test Summary: Stability in human plasma assessed as parent compound remaining after 24 hrs
Type: ADME, cell-free
Details: read-out: Stability
Expressed in %, but write only the number.

CC(=O)N[C@@H](Cc1cccs1)C(=O)N[C@@H](CCC(N)=O)C(=O)N[C@@H](CO)C(=O)N[C@@H](CCCCN)C(=O)N1CCC[C@@H]1C(=O)N[C@@H](CC(N)=O)C(=O)N[C@H](C(=O)N[C@@H](Cc1cnc[nH]1)C(=O)N[C@H](C(=O)N[C@@H](CC(=O)O)C(=O)NCC(=O)N[C@@H](Cc1ccc(O)cc1)C(=O)N[C@@H](Cc1ccccc1)C(=O)N[C@@H](CCC(=O)O)C(=O)N[C@@H](CCCNC(=N)N)C(=O)N[C@@H](CC(C)C)C(=O)NC(C)(C)C(=O)N[C@@H](C)C(=O)N[C@@H](CCCCN)C(=O)N[C@@H](CC(C)C)C(N)=O)C(C)C)C(C)C : 19.8

Lab note: measured remaining at 24 h of CC(C)C[C@@H]1NC(=O)[C@H](CCCCN)NC(=O)[C@H](C)NC(=O)C(C)(C)NC(=O)[C@H](CC(C)C)NC(=O)[C@H](CCCNC(=N)N)NC(=O)[C@H](CCC(=O)O)NC(=O)[C@H](Cc2ccccc2)NC(=O)[C@H](Cc2ccc(O)cc2)NC(=O)CNC(=O)[C@H](CC(=O)O)NC(=O)[C@H](C(C)C)NC(=O)[C@H](Cc2cnc[nH]2)NC(=O)[C@H](C(C)C)NC(=O)[C@H](CC(N)=O)NC(=O)[C@H]2CCCN2C(=O)[C@H](CCCCN)NC(=O)[C@H](CO)NC(=O)[C@H](CCC(N)=O)NC(=O)[C@H](Cc2ccccc2)NC(=O)CCOCCOCCOCCOCCNC1=O was 55.9

---

Listing of recorded IC50 by entry.
Test Target: Tissue factor pathway inhibitor (Homo sapiens, UniProt P10646)
Sequence (P10646 whole entry): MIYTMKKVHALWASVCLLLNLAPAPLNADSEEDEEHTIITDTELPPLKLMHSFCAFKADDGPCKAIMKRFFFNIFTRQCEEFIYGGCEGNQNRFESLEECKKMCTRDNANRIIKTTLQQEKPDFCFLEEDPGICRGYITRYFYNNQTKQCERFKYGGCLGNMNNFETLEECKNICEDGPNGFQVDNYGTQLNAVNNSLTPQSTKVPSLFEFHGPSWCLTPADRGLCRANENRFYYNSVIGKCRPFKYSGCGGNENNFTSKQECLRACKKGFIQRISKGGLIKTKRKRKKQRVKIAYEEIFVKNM
Test Summary: Binding affinity to TFPI (unknown origin) incubated for […] using tracer peptide JBT0131 by screening ELISA

Answered examples (2):
Ac-FQSKKNVFVFGYFERLRAFL-NH2 : > 5 µM
Ac-FQSLKNVFVFGYFERLRAKL-NH2 : > 1.67 µM

Lab note: measured IC50 of Ac-FQSKKNVFVFGDFERLRAKL-NH2 was > 5 µM

Lab note: measured IC50 of Ac-FQSKGNVFVDGYFERLRRKL-NH2 was < 0.05 µM

Lab note: measured IC50 of Ac-FQSKKNVFVFGYFERDRAKL-NH2 was > 5 µM

Lab note: measured IC50 of Ac-FQSKLNVFVFGYFERLRAKL-NH2 was > 1.67 µM

Lab note: measured IC50 of Ac-FQSKKLVFVFGYFERLRAKL-NH2 was > 5 µM

Lab note: measured IC50 of Ac-FLSKKNVFVFGYFERLRAKL-NH2 was 1 to 5 µM

Lab note: measured IC50 of Ac-FQSKHHVFVDGYFERLCAKL-NH2 was < 0.05 µM

Lab note: measured IC50 of Ac-FQSKKNVFVFGGFERLRAKL-NH2 was > 5 µM

Lab note: measured IC50 of Ac-FQSKKNVFVFGYFEFLRAKL-NH2 was > 5 µM

Lab note: measured IC50 of Ac-FQSKKNVFVFGYFERLDAKL-NH2 was > 5 µM

Lab note: measured IC50 of Ac-FQSKGNVFVDGYFERLRMKL-NH2 was < 0.05 µM

Lab note: measured IC50 of Ac-FQLKKNVFVFGYFERLRAKL-NH2 was > 5 µM

Lab note: measured IC50 of Ac-FQSKKNVFVFLYFERLRAKL-NH2 was > 5 µM

Lab note: measured IC50 of Ac-FQSKKNYDVFGYFERLRAKL-NH2 was > 5 µM

Lab note: measured IC50 of Ac-FQSKKNVFVFGYFERLFAKL-NH2 was > 5 µM

Lab note: measured IC50 of Ac-FQSKKNVFVFGYFERFRAKL-NH2 was > 5 µM

Lab note: measured IC50 of Ac-FFSKKNVFVFGYFERLRAKL-NH2 was > 5 µM

Lab note: measured IC50 of Ac-FDSKKNVFVFGYFERLRAKL-NH2 was > 1.67 µM
